targetDesc: CB1 receptor (Homo sapiens, UniProt P21554)
Sequence (P21554 whole entry): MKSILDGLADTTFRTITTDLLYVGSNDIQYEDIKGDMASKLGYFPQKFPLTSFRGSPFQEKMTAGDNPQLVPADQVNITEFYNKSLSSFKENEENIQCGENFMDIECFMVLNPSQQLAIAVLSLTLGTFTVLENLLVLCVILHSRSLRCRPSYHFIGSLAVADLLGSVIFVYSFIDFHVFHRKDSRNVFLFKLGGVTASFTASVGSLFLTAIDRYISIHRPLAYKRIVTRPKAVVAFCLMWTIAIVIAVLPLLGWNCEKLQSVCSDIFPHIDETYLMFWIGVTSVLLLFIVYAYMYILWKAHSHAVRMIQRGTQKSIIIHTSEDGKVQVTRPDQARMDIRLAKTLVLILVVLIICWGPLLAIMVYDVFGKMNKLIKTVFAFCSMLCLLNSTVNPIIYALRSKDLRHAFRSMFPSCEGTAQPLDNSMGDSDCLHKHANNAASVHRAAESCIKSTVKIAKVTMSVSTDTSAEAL
assaySummary: cAMP Assay #2: Hit Hunter cAMP assay, Gi-coupled agonist activity, CB1
Assay type: cell-based
Parameters: host or cells: PathHunter cell lines
Method: Compounds of the invention were assayed in the Hit Hunter® cAMP assay to determine Gi-coupled agonist activity on the CB1 and CB2 receptors, the results of which are provided in Table 5. […] Intermediate dilution of sample stocks was performed to generate 4× sample in assay buffer. […] Microplates were read following signal generation with a PerkinElmer Envision™ instrument for chemiluminescent signal detection. Compound activity was analyzed using CBIS data analysis suite (Chem Innovation, CA). […]
propertyName: pEC50
Formally, pEC50 is defined as -log10 of the concentration c, with c in mol/L.

Check out these entries, answers already filled in.
> print(dat)
                          structureassmiles                                targetdesc  observed
1  CCCCCCC(C)(C)c1cc(O)c2c(c1)OC(C)(C)c1ccc(C(=O)O)cc1-2  CB1 receptor (Homo sapiens, UniProt P21554)      6.20
2  CCCCCCC(C)(C)c1cc(O)c2c(c1)OC(C)(C)[C@@H]1CC=C(C(=O)NC(C)(C)C)C[C@@H]21  CB1 receptor (Homo sapiens, UniProt P21554)      7.88
3  CCCCCCC(C)(C)c1cc(O)c2c(c1)OC(C)(C)[C@@H]1CC=C(C(=O)NO)C[C@@H]21  CB1 receptor (Homo sapiens, UniProt P21554)      7.94

Input line: Tell us which pEC50 value is on record for `CCCCCCC(C)(C)c1cc(O)c2c(c1)OC(C)(C)[C@@H]1CC=C(C(=O)NCCO)C[C@@H]21`
Output line: 7.49

Input line: Let me know recorded pEC50 for `CCCCCCC(C)(C)c1cc(O)c2c(c1)OC(C)(C)[C@@H]1CC=C(C(=O)OC(C)C)C[C@@H]21` , thanks.
Output line: 8.02
